// provenance: PubChem BioAssay (NCI)

- Tested on: SNB-19 CNS
- Assay comment: NCI tumour cell line growth inhibition, 384-well format
Measured TGI of individual entries

Molecule	TGI
CCc1c(C#N)c(S[C@@H](C(N)=O)c2ccccc2)nc(N(C)C)c1C#N	> 100 µM
C#CCC(Cc1cnc2nc(N)nc(N)c2n1)c1ccc(C(=O)N[C@@H](CCC(=O)O)C(=O)O)cc1 (some centres undefined)	< 0.01 µM
C=CC(=O)N1CCN(c2nc(=O)n(-c3c(C)ccnc3C(C)C)c3nc(-c4c(O)cccc4F)c(F)cc23)[C@@H](C)C1	> 100 µM
CC1=C2C[C@H]3[C@@H](CC[C@@H]4CC(NS(C)(=O)=O)CC[C@@]43C)[C@@H]2CC[C@@]2(C1)O[C@@H]1C[C@H](C)CN[C@H]1[C@H]2C (some centres undefined)	16.4 µM

----------
- System: BT-549 breast
- Assay comment: NCI tumour cell line growth inhibition, 384-well format

Compound	Value modifier	TGI [µM]
CC[C@H](Nc1nc(NCc2cnc(C)cc2C)c2ncn(C(C)C)c2n1)[C@@H](C)O	=	0.294
Cc1ccccc1N=Nc1ccc(NC(=O)c2ccnn2C)c(C)c1	>	100
N[C@@H]1CCCC[C@H]1N.O=C([O-])C(=O)[O-].[Pt+4]	=	27.8
CC1=C2C[C@H]3[C@@H](CC[C@@H]4CC(NS(C)(=O)=O)CC[C@@]43C)[C@@H]2CC[C@@]2(C1)O[C@@H]1C[C@H](C)CN[C@H]1[C@H]2C (stereo not given in full)	=	12.8
CC(C)(O)CS(=O)(=O)Nc1ccc2c(c1)CCN(C(=O)COc1cccnc1)C2	=	0.0401

----------
- Test system: NCI-H522 lung
- Assay comment: NCI tumour cell line growth inhibition, 384-well format
Measured TGI of individual entries
Attribute measured: TGI (µM)

In [3]: df
Out[3]:
                                   compound  value_modifier  observed_value
0  N[C@@H]1CCCC[C@H]1N.O=C([O-])C(=O)[O-].[Pt+4]               =            21.7
1   Cc1ccccc1N=Nc1ccc(NC(=O)c2ccnn2C)c(C)c1               =            93.1
2  C#CCC(Cc1cnc2nc(N)nc(N)c2n1)c1ccc(C(=O)N[C@@H](CCC(=O)O)C(=O)O)cc1 (some centres undefined)               <            0.01
3  CC[C@H](Nc1nc(NCc2cnc(C)cc2C)c2ncn(C(C)C)c2n1)[C@@H](C)O               =           0.341

----------
- Test system: SF-539 CNS
- Assay comment: NCI tumour cell line growth inhibition, 384-well format; in the data active means GI50 below about 0.43 µM; inactive means the rest
Outcomes: true (1) = active, false (0) = inactive

>>> df
                                   compound  group_label
0  COc1ncc(-c2ccc3nccc(-c4ccnnc4)c3c2)cc1NS(=O)(=O)c1ccc(F)cc1F     true (1)
1  C#CCC(Cc1cnc2nc(N)nc(N)c2n1)c1ccc(C(=O)N[C@@H](CCC(=O)O)C(=O)O)cc1 (stereo not given in full)     true (1)
2  CC(C)(O)CS(=O)(=O)Nc1ccc2c(c1)CCN(C(=O)COc1cccnc1)C2     true (1)
3   Cc1ccccc1N=Nc1ccc(NC(=O)c2ccnn2C)c(C)c1    false (0)
4  CCc1c(C#N)c(S[C@@H](C(N)=O)c2ccccc2)nc(N(C)C)c1C#N    false (0)
